Assign TGI to each entry below.
System: BT-549 breast
Assay: NCI tumour cell line growth inhibition, 48 h

Solved cases (6 shown):
CSc1c(C(=O)Nc2ccccc2)c(N)n(N)c(=O)c1C#N ... > 100 µM
O=[N+]([O-])c1ccc(CSc2nncc3[nH]cnc23)cc1 ... > 100 µM
CCOC(=O)Nc1cc2c(c(N)n1)N=C(c1ccc(OC)cc1)CN2 ... 80.5 µM
CCCC(C)c1ccc(OCCCCCCN2CCNCC2)cc1 (centres undefined) ... 12.4 µM
C=CCn1c(N)c(C#N)c(C#N)c1CCC ... > 100 µM
C=C(CCOC)CCC1CCCCC(CN(C)C)C1=O (centres undefined) ... > 100 µM

For every listed record, write down its TGI.
1. CCN1C(=O)/C(=C/c2c(Cl)[nH]c3cc(C)c(OC)cc23)c2ccccc21
2. CCCOC(=O)N[C@H]1CCc2c(Cl)c(OC)c(OC)c(OC)c2-c2ccc(SC)c(=O)cc21
3. Cc1ccc(-n2[nH]nc(C(N)=O)c2=O)cc1
4. CC(C)C(O)(C(C)C)C(C)C
5. CC(C)NC(=O)OCc1c2c(n(C)c1COC(=O)NC(C)C)-c1cc(Cl)c(Cl)cc1CC2
6. OC(CC1CCCCN1)c1ccc2c(c1)oc1ccccc12 (centres undefined)
7. CSC(SC)(C(=O)O)c1cc(-c2c(Cl)cccc2Cl)no1
8. O=C(O)c1ccc(CN2CCC(CN[C@@H]3C[C@H]3c3ccccc3)CC2)cc1

1. 6.31 µM
2. 6.01 µM
3. > 100 µM
4. > 100 µM
5. > 100 µM
6. > 100 µM
7. > 100 µM
8. > 100 µM

For every listed record, write down its TGI.
1. C=C(C)[C@@H]1CC[C@]2(COCCCN)CC[C@]3(C)[C@H](CC[C@@H]4[C@@](C)(CCCNCCCN)[C@H](C(=C)C)CC[C@]43C)[C@@H]12
2. O=NNc1ccc2ccccc2n1
3. O=C(NN1C(=O)C(Cl)C1c1ccc(Cl)cc1)c1c(Cl)c(Cl)c(Cl)c(Cl)c1-c1nc2ccccc2[nH]1 (centres undefined)
4. Cc1nnc(-c2ccc(C)c(-c3ccc(C(=O)Nc4cccc(C#N)c4)cc3)c2)o1
5. CC(=O)C(C(c1ccccc1)N1CCOCC1)N1CCOCC1 (centres undefined)

["29.6 µM", "> 100 µM", "77.8 µM", "> 25 µM", "> 100 µM"]

----------
Test system: HOP-92 NSCLC
Assay: NCI tumour cell line growth inhibition, 48 h
measure: GI50

Solved cases (3 shown):
O=c1[nH]c2ccccc2cc1-c1nc2ccc(Cl)cc2[nH]1 ... 1480 nM
C[C@]12CCc3sc(Nc4ccc(OC(F)(F)F)cc4)nc3C1=CC[C@@H]1[C@@H]2CC[C@]2(C)C(=O)CC[C@@H]12 ... 1430 nM
C=C1c2c(C)nn(-c3ccc(C#CCOC4OC(CO)C(O)C(O)C4O)cc3)c2N(C)C23C[C@H]1C1(C)c4c(C)nn(-c5ccc(C#CCOC6OC(CO)C(O)C(O)C6O)cc5)c4N(C)C(C)(C[C@H]12)C3 (stereo not given in full) ... 437 nM

For every listed record, write down its GI50.
1. Cc1nnc(-c2ccc(C)c(-c3ccc(C(=O)Nc4cccc(C#N)c4)cc3)c2)o1
2. CCOC(=O)[CH-]C(=O)C12CC3CC(CC(C3)C1)C2.CCOC(=O)[CH-]C(=O)C12CC3CC(CC(C3)C1)C2.CC[O-].CC[O-].[Ti+4]

1: > 25000 nM; 2: > 100000 nM

----------
Tested on: HCC-2998 colon
Assay: NCI tumour cell line growth inhibition, 48 h
measure: TGI (µM)
Numbers only, in µM.

CNC(=O)OCc1c(COC(=O)NC)c(-c2ccc(-c3ccccc3)cc2)n(C)c1C ... 13.1
Nc1ncc(-c2cnn(C3CCNCC3)c2)cc1-c1nc2cc(Cl)ccc2o1 ... 2.82

Measured TGI of CCN1C(=O)/C(=C/c2c(Cl)[nH]c3cc(C)c(OC)cc23)c2ccccc21 : 7.15

----------
System: MDA-MB-435
Lab note: assign the record to one of active, inactive

Known results for compounds:
Cc1nnc(-c2ccc(C)c(-c3ccc(C(=O)Nc4cccc(C#N)c4)cc3)c2)o1 ... inactive
Cc1cc(Cl)ccc1OCC(=O)Nc1nc2c(Cl)cccc2s1 ... inactive
CCOc1cc(C(C)(C)C)ccc1C1=N[C@H](c2ccc(Cl)cc2)[C@H](c2ccc(Cl)cc2)N1C(=O)N1CCN(CC#Cc2cccc3c2CN([C@@H]2CCC(=O)NC2=O)C3=O)CC1 ... inactive
CC/C=C\C[C@H]1CC=C2C(=O)C=C[C@@H]2CC=CCCCC(=O)O[C@@H](CCCCC)CC=C2C(=O)C=C[C@@H]2CC=CCCCC(=O)O[C@@H](CCCCC)CC=C2C(=O)C=C[C@@H]2CC=CCCCC(=O)O[C@@H](CCCCC)CC=C2C(=O)C=C[C@@H]2CC=CCCCC(=O)O1 ... inactive
Nc1ncc(-c2cnn(C3CCNCC3)c2)cc1-c1nc2cc(Cl)ccc2o1 ... inactive

Hello, I am checking results. What call was entered for CC1(C)N=C(N)N=C(N)N1c1ccc(CCC(=O)Nc2ccc(S(=O)(=O)F)cc2)c(Cl)c1 ? active

Hello, I am checking results. What call was entered for COc1cccc2c1C(=N)c1c(O)c3c(c(O)c1C2=O)C[C@@](O)(C(C)=O)C[C@@H]3O[C@H]1C[C@H](N)[C@H](O)[C@H](C)O1 ? inactive

Hello, I am checking results. What call was entered for O=C(/C=C/c1ccccc1)Nc1ncc(Cc2ccccc2Cl)s1 ? active

Hello, I am checking results. What call was entered for NC(CSC(c1ccccc1)(c1ccccc1)c1ccccc1)C(=O)NCC(=O)O (configuration not stated) ? inactive

----------
Assign TGI to each entry below.
System: CCRF-CEM leukemia
Test: NCI tumour cell line growth inhibition, 48 h
One number for each entry, in µM.

Solved cases (2 shown):
CCC(=O)OC[n+]1ccc2c(C)c3[nH]c4ccccc4c3c(C)c2c1 ... 2.68
CCC[CH2][Sn]([CH2]CCC)([O]C(=O)CN)[O]C(=O)CN ... 51.8

Measured TGI of COC(=O)c1ccc2[nH]c(O)c(C(=Nc3ccc(N(C)C(=O)CN4CCN(C)CC4)cc3)c3ccc4c(c3)OCO4)c2c1 : 6.25

----------
Tested on: A549 NSCLC
Test: NCI tumour cell line growth inhibition, 48 h; in the data active = GI50 below about 0.43 µM; inactive = the rest
Lab note: assign the record to one of active, inactive

CC/C=C\C[C@H]1CC=C2C(=O)C=C[C@@H]2CC=CCCCC(=O)O[C@@H](CCCCC)CC=C2C(=O)C=C[C@@H]2CC=CCCCC(=O)O[C@@H](CCCCC)CC=C2C(=O)C=C[C@@H]2CC=CCCCC(=O)O[C@@H](CCCCC)CC=C2C(=O)C=C[C@@H]2CC=CCCCC(=O)O1 ... inactive

Hello, I am checking results. What call was entered for Cc1cc(Cl)ccc1OCC(=O)Nc1nc2c(Cl)cccc2s1 ? inactive

Hello, I am checking results. What call was entered for COc1ccc2c(c1)NC1=C(C(=O)OC1)C2c1cc(OC)c(OC)c(OC)c1 (stereo not drawn) ? active

Hello, I am checking results. What call was entered for N/N=C\c1c2ccccc2c(=O)n2c1oc1ccccc12 ? inactive

Hello, I am checking results. What call was entered for Nc1n[nH]c2cccc(C#Cc3cccc(NC(=O)c4cccc(C(F)(F)F)c4)c3)c12 ? inactive

Hello, I am checking results. What call was entered for COc1ccc2c(c1)C(=O)CCc1cc(OC)c(OC)c(OC)c1-2 ? active

Hello, I am checking results. What call was entered for CCOc1cc(C(C)(C)C)ccc1C1=N[C@H](c2ccc(Cl)cc2)[C@H](c2ccc(Cl)cc2)N1C(=O)N1CCN(CC#Cc2cccc3c2CN([C@@H]2CCC(=O)NC2=O)C3=O)CC1 ? inactive

Hello, I am checking results. What call was entered for CCN(CC)CCNC(Cc1ccccc1)c1ccc(OCc2ccccc2)cc1 (stereo not drawn) ? inactive

----------
System: IGROV1 ovarian
Test: NCI tumour cell line growth inhibition, 48 h; in the data active means GI50 below about 0.43 µM; inactive means the rest
Lab note: assign the record to one of TRUE = active, FALSE = inactive

Known results for compounds:
Cc1cn(-c2cc(NC(=O)c3cccc(C#Cc4cccc5[nH]nc(N)c45)c3)cc(C(F)(F)F)c2)cn1 ... FALSE
[N-]=[N+]=NCCCn1c2c(c3ccc([N+](=O)[O-])cc3c1=O)C(=O)c1ccccc1-2 ... FALSE
C=C1c2c(C)nn(-c3ccc(C#CCOC4OC(CO)C(O)C(O)C4O)cc3)c2N(C)C23C[C@H]1C1(C)c4c(C)nn(-c5ccc(C#CCOC6OC(CO)C(O)C(O)C6O)cc5)c4N(C)C(C)(C[C@H]12)C3 (stereo partly drawn) ... FALSE
O=C1C=CC(=O)C2C1C1(Cl)C(Cl)=C(Cl)C2(Cl)C1(Cl)Cl (stereo not drawn) ... FALSE
COc1cc(Nc2ncccc2C(=O)Nc2nc3ccc(F)cc3s2)cc(OC)c1OC ... FALSE
CC(=O)OC1OC([C@H]2c3cccc(O)c3C(=O)c3c(O)cc(C)cc32)C(O)C(O)C1O (stereo partly drawn) ... TRUE
CCN1C(=O)c2ccc3c4c(ccc(c24)C1=O)C(=O)N(CCCNCc1ccccc1OC)C3=O ... FALSE

# evaluate next
Hello, I am checking results. What call was entered for CCCCCCCCn1ccc2cc(NC(=O)Cn3cc(CN4CCCCCC4)nn3)ccc21 ? FALSE

Value source: PubChem BioAssay (NCI)
